Exercise: state measured IC50 for each of the compounds provided.
targetDesc: Sodium- and chloride-dependent betaine transporter (Homo sapiens, UniProt P48065, Q299L)
Sequence (P48065 whole entry Q299L): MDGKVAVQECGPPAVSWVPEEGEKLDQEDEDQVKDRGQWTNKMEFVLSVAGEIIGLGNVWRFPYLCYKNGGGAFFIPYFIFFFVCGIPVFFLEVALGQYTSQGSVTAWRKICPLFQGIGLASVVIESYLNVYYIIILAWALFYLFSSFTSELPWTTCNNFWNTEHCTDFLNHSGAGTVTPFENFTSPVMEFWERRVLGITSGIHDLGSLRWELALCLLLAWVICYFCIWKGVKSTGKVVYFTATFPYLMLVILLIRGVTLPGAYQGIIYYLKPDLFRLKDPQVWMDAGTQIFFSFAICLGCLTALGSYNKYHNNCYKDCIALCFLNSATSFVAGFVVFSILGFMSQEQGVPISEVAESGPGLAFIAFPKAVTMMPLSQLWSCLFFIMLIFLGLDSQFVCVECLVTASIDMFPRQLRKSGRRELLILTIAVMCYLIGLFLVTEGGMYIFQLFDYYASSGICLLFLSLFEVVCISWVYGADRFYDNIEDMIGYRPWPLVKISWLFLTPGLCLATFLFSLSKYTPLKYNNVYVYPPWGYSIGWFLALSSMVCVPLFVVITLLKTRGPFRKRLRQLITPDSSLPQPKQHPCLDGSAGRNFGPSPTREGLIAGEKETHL
assayNotes: Inhibition of human BGT1 Q299L mutant expressed in tsA201 cells assessed as reduction in [3H]GABA uptake after 3 mins by scintillation counting method
The figure you give is taken to be in µM; do not add the unit.

Reported IC50 for O=C(NC1CCN(Cc2ccccc2)CC1)c1ccc(Cl)nc1Cl : what is it?
8

Fill in the blank: the reported IC50 of O=C(NC1CCN(Cc2ccccc2)CC1)c1ccc(Cl)cc1Cl is ____.
3

###

targetDesc: Sodium- and chloride-dependent betaine transporter (Homo sapiens, UniProt P48065, H312N)
assayNotes: Inhibition of human BGT1 H312N mutant expressed in tsA201 cells assessed as reduction in [3H]GABA uptake after 3 mins by scintillation counting method
attributeMeasured: IC50
Write the quantity with the unit trailing the number.

Can you share its IC50? I mean this compound: O=C(NC1CCN(Cc2ccccc2)CC1)c1ccc(Cl)cc1Cl
8 µM

// provenance: ChEMBL document CHEMBL4028872
